- ASSAYED SYSTEM: full length active recombinant SYK enzyme (Homo sapiens, UniProt P43405)
- Construct: full length active recombinant SYK enzyme (Millipore, Calif.)
- ASSAY OVERVIEW: Inhibition of Syk tyrosine phosphorylation activity (LANCE TR-FRET kinase assay)
- CONDITION: 1 nM SYK, 550 nM substrate, 100 μM ATP, 1 hour room temperature
MEASUREMENT KIND: IC50

Cc1cccc(Nc2nc(N[C@@H]3CC[C@H](N)C3)ncc2C(N)=O)c1    100 to 1000 nM

Ask: Write down IC50 measured for item `NC(=O)c1cnc(NC[C@@H](N)CC(F)F)nc1Nc1cccc2c1ccn2CC(F)(F)F`
Result: 1 to 10 nM

Ask: Write down IC50 measured for item CCOC(=O)[C@@H]1CC[C@@H](Nc2ncc(C(N)=O)c(Nc3cccc(C)c3)n2)[C@@H](N)C1 (racemic)
Result: 10 to 100 nM

Ask: Write down IC50 measured for item `NC(=O)c1cnc(N[C@@H]2CCCC[C@@H]2N)nc1Nc1ccc(Br)c(-n2nccn2)c1`
Result: 10 to 100 nM

Ask: Write down IC50 measured for item `CC[C@@H](Nc1ncc(C(N)=O)c(Nc2cccc(-c3ncccn3)c2)n1)C1(N)CC1`
Result: 1 to 10 nM

Ask: Write down IC50 measured for item `Cn1ccc2c(Nc3nc(NC4CCCCC4)ncc3C(N)=O)cccc21`
Result: 100 to 1000 nM

Ask: Write down IC50 measured for item `N#CCN1CC[C@@H](Nc2ncc(C(N)=O)c(Nc3cccc(-n4nccn4)c3)n2)C1`
Result: 100 to 1000 nM

Ask: Write down IC50 measured for item `NC(=O)c1cnc(N[C@H](C2CC2)C2(N)CC2)nc1Nc1cccc(-n2cncn2)c1`
Result: 1 to 10 nM
